Taken from patent US20250282866A1.

Molecular target: T1, human TREM2 (human, UniProt Q9NZC2 19-174, limits assumed)
T1 construct: also called triggering receptor expressed on myeloid cells 2
T1 sequence: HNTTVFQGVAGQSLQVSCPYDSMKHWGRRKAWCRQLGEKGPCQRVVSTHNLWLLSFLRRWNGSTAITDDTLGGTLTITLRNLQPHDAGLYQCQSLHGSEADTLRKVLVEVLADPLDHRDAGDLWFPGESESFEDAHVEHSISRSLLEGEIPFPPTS
Test: 2nd screen 100 nM
Below, each entry is listed with its recorded Binding Signal (fold over 6E7 Parental antibody).
Hi, when you answer, please include the unit after the number. Thanks!

binder	result
V35 (antibody, V domains shown) VH: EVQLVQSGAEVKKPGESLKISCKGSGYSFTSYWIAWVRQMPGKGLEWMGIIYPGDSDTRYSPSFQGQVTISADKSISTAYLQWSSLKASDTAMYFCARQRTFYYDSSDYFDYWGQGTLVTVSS VL: DIQMTQSPSSVSASVGDRVTITCRASQGISSWLAWYQQKPGKAPKLLIYAASSLQNGVPSRFSGSGSGTDFTLTISSLQPEDFATYFCQQAYSFPRTFGQGTKLEIK	0.29 fold

API: the following record is the query input.
Query: Binding Signal (fold over 6E7 Parental antibody); subject: V66 (antibody, V domains shown) VH: EVQLVQSGAEVKKPGESLKISCKGSGTSFTSYWIAWVRQMPGKGLEWMGIIYPGDSDTRYSPSFQGQVTISADKSISTAYLQWSSLKASDTAMYFCARQRTFYYDSSDYFDYWGQGTLVTVSS VL: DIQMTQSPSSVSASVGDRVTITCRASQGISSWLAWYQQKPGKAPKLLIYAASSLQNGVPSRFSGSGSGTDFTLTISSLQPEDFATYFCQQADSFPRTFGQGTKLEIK
0.74 fold
